Values from patent US7622469B2

# Tested on: VRE 49
# experimental details: Bactericidal activity test (MBC, phenol coefficient measuring method)
# Assay type: cell-based, vancomycin-resistant enterococci
# experimental setup: 3 min
Quick reference for minimal bactericidal concentration (MBC) among some compounds
Write it as a number; the unit µg/mL goes unstated.

{"structure smiles": "CC(=O)O.CCCCCCCCCNC1=NC(C)(C)N=C(NCc2ccccc2)N1", "minimal bactericidal concentration (MBC), µg/mL": 12.5}
{"structure smiles": "CC(=O)O.CCCCCCCCNC1=NC(C)(C)N=C(NCc2ccc(C)cc2)N1", "minimal bactericidal concentration (MBC), µg/mL": 25}

Then there is this compound:
What minimal bactericidal concentration (MBC) appears in the records for this compound with VRE 49? CC(=O)O.CCCCCCCCNC1=NC(C)(C)N=C(NCCCCCC)N1
25
